system_name: SpBzz1-D1
method_summary: SPOT peptide array binding signal intensity (averaged, normalized) (arbitrary units (background-subtracted, floor 0; scale differs between SH3 domains)); higher = stronger binding of the SH3 domain to the peptide
measure: SPOT peptide array binding signal intensity

1) LASNSPPVYPKRIRH
248

Entry under review: `KNRKNLPTIPIRLSG` . Reported SPOT peptide array binding signal intensity?
512

`PHNPSPFFPPPDFND` ?
30

`LYKRKPILLPDPKPL` ?
188

Follow-up item: `TKFRISLGLPVGAIM`
537

Try this binder next: `PPPPPPPPPPPLPQS`
2670

Next binder up: `STKKPRPPVKSKPKH`
47

These measurements were taken from the supplement of paper PMC4466140.
